assay: in vitro; conditions: human, liver microsomes
Assay metric: half-life at 5 µM

Record smiles: CC[C@@]1(CCC(C)C)CN(C2CCCC2)C(=O)C(C2=NS(=O)(=O)c3cc(NS(C)(=O)=O)ccc3N2)=C1O
Reported result: 3 min

Record smiles: CCC[C@]1(C)CN(C2CCC2)C(=O)C(C2=NS(=O)(=O)c3cc(NS(C)(=O)=O)ccc3N2)=C1O
Reported result: 2.8 min

Record smiles: C[C@@]1(CCC2CC2)CN(C2CCC2)C(=O)C(C2=NS(=O)(=O)c3cc(NS(C)(=O)=O)ccc3N2)=C1O
Reported result: 5.1 min

Record smiles: CC(C)(C)CC[C@]1(C)CN(C2CCC2)C(=O)C(C2=NS(=O)(=O)c3cc(NS(C)(=O)=O)ccc3N2)=C1O
Reported result: 3 min

Record smiles: CC(C)(C)CC[C@]1(C)CN(C2CCCCC2)C(=O)C(C2=NS(=O)(=O)c3cc(NS(C)(=O)=O)ccc3N2)=C1O
Reported result: 1.4 min

Record smiles: C[C@@]1(CCC2CC2)CN(C2CCCC2)C(=O)C(C2=NS(=O)(=O)c3cc(NS(C)(=O)=O)ccc3N2)=C1O
Reported result: 3.7 min

Record smiles: CCCC[C@]1(C)CN(C2CCC2)C(=O)C(C2=NS(=O)(=O)c3cc(NS(C)(=O)=O)ccc3N2)=C1O
Reported result: 3 min

Record smiles: CC(C)(C)CC[C@]1(C)CN(C2CCCC2)C(=O)C(C2=NS(=O)(=O)c3cc(NS(C)(=O)=O)ccc3N2)=C1O
Reported result: 1.6 min
